- Test system: Malme-3M
- assay: Antiproliferative activity against human Malme-3M cells assessed as cell growth inhibition at 10 uM by SRB assay relative to control
- Format: functional
property_label: inhibition at 10 µM (%)
Numbers only, in %.

smi	property_label	recorded_measurement
COc1cc2oc(-c3cccc(C(=O)Nc4ccc(C)cc4)c3)cc(=O)c2c(OC)c1OC	inhibition at 10 µM	70.1

Look at each compound and report its inhibition at 10 µM.
1. COc1cc2oc(-c3cccc(C(=O)Nc4ccc(C#N)cc4)c3)cc(=O)c2c(O)c1OC
2. COc1cc2oc(-c3cccc(C(=O)Nc4ccc(Cl)cc4)c3)cc(=O)c2c(OC)c1OC
3. COc1cc2oc(-c3cccc(NC(=O)c4ccc([N+](=O)[O-])cc4)c3)cc(=O)c2c(OC)c1OC
4. COc1cc2oc(-c3cccc(NC(=O)c4ccc(Br)cc4)c3)cc(=O)c2c(OC)c1OC

Reply:
[52.3, 85.8, 70.2, 39.1]
